The values you see were collected from patent US10512624B2.

# TEST_SUMMARY: Plasma MEDICA16αα exposure in STZ diabetic rats (LC/MS)
# Format: in vivo
# EXPERIMENTAL_SETUP: Sprague-Dawley, rat, po, 15 mg/kg, oral 15 mg/kg b.i.d, data not shown, read-out: plasma MEDICA16αα exposure, non-responsive rats
QUANTITY_NAME: concentration at 10 days (ng/mL)
The reply should contain only the number, in ng/mL.

Query block: I would be grateful if you could share the reported concentration at 10 days for CC(C)(CCCCCCCCCCCCC(C)(C)C(=O)O)C(=O)O [MEDICA16αα] .
Result block: 26

* * *

# TEST_SUMMARY: Plasma MEDICA16αα exposure in STZ diabetic rats (LC/MS)
# Assay type: in vivo
# EXPERIMENTAL_SETUP: Sprague-Dawley, rat, po, 15 mg/kg, oral 15 mg/kg b.i.d, data not shown, read-out: plasma MEDICA16αα exposure, responsive rats
QUANTITY_NAME: concentration at 10 days (ng/mL)
The reply should contain only the number, in ng/mL.

Query block: I would be grateful if you could share the reported concentration at 10 days for CC(C)(CCCCCCCCCCCCC(C)(C)C(=O)O)C(=O)O [MEDICA16αα] .
Result block: 22.5
